Just for reference, PubChem BioAssay (EPA / NIEHS) is where these values come from.

# assay_system: Retinoic acid receptor alpha (Homo sapiens) (UniProt P10276)
# Sequence (P10276 whole entry, looked up): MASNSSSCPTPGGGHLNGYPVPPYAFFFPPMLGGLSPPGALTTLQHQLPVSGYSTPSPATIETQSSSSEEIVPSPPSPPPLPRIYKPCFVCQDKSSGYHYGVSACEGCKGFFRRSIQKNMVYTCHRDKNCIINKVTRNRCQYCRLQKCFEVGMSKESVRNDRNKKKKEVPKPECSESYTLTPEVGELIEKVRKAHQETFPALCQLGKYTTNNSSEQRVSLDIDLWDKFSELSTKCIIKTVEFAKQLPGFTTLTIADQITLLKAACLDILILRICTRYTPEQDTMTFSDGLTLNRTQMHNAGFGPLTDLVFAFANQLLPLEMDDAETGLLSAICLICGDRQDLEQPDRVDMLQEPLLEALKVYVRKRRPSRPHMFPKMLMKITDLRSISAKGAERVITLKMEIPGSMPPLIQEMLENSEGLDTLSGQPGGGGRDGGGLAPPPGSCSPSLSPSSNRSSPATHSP
# test_summary: NVS_NR_hRARa_Agonist: NovaScreen (NVS) Nuclear Receptor Binding Assay for human Retinoic Acid Alpha Receptor Agonism (RAR) (AID 2283361)
Inconclusive results are not listed. Calls of active or inactive are those of the source. Rule for the calls: active = hit-call score of the fitted dose curve at least 0.9, where 1 is the maximum; inconclusive = response in the unintended direction; inactive = score below 0.9.
// allowed return values: active, inactive

(Q) How did this test come out for `O=S(=O)(O)c1ccc(N=Nc2c(O)ccc3ccccc23)cc1` ?
(A) active

(Q) How did this test come out for `CCCCCCCCCC[N+](C)(CCCCCCCCCC)CCC[Si](OC)(OC)OC` ?
(A) active

(Q) How did this test come out for `CN(C)c1ccc2nc3ccc(=[N+](C)C)cc-3sc2c1` ?
(A) active

(Q) How did this test come out for `O=C(O)c1cc(O)c2ccccc2c1O` ?
(A) inactive

(Q) How did this test come out for `O=c1c(O)c(-c2ccc(O)cc2O)oc2cc(O)cc(O)c12` ?
(A) active
